Data origin: patent US20160237414A1

Target: T1, Purified luminal domain LIMP-2 (ld-LIMP2) (UniProt Q14108 28-433, limits assumed)
T1 construct: domain: luminal domain; also called LIMP-2/SCARB2
T1 sequence (looked up): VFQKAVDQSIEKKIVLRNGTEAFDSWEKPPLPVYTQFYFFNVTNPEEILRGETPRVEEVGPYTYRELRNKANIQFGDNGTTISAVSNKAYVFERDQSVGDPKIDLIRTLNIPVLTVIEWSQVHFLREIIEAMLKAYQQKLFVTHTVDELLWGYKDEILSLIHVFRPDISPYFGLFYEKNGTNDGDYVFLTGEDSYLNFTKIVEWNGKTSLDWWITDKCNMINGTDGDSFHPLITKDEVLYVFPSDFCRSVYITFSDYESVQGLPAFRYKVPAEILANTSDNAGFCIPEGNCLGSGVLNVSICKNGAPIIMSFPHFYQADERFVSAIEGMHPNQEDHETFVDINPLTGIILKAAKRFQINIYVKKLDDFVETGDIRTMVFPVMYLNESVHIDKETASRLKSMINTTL
Assay: fluorescence polarization, FITC peptide titrated, ldLIMP2 fixed at 50 nM (FIG. 7A)
pEC50: −log10 of the molar value. Primed or numbered codes have the meaning given here. No end group written: not given here. FITC′ = fluorescein isothiocyanate (fluorescent probe)
TEST_READOUT: pEC50

Report pEC50 for DSPIIV-{FITC′} (also called WT peptide; WT*) [DSPIIV (SEQ ID NO 15) GCase peptide, FITC labeled] please.
~7.30
